TARGET: T1, human IL-4Rα (hIL-4Rα) monomeric protein (human, UniProt P24394 26-232, limits assumed)
T1 construct: also called hIL-4Rα antigen; barcoded hIL-4Rα
ASSAY_EXPLANATION: barcoded-antigen count on source cell (scRNA-seq)
MEASUREMENT_NAME: REGN560.L15_ab_raw (counts)
Write it as a number; the unit counts goes unstated.

Would you please look over these solved cases?
BINDER: Table 1 Line # 35 antibody (SP_B_cell) (antibody, human IgG4, V domains shown, Cloned with human IgG4/human Igk constants for Kd; barcode counts are of the source cell's own IgG) VH: EVQLVESGGGLVKPGGSLRLSCAASGFTFSSYSMNWVRQAPGKGLEWVSSISSSSSYIYYADSVKGRFTISRDNAKNSLYLQMNSLRAEDTAVYYCARDRSSSPLENWGQGTLVTVSS VL: DIQMTQSPSSVSASVGDRVTITCRASQGISSWLAWYQQKPGKAPKLLIYAASSLQSGVPSRFSGSGSGTDFTLTISSLQPEDFATYYCQQANSFPITFGQGTRLEIK
REGN560.L15_ab_raw, counts: 6710
//
BINDER: Table 1 Line # 40 antibody (SP_Plasma_cell) (antibody, human IgG4, V domains shown, Cloned with human IgG4/human Igk constants for Kd; barcode counts are of the source cell's own IgG) VH: QVQLQESGPGLVKPSETLSLTCTISGGSISTYYWSWIRQPPGKGLEWIGYIYYSGNTNYNPSLKSRVTISVDTSKNQFSLKLNSVTAADTAVYYCARHRGSYVYGMDVWGQGTTVTVSS VL: DIQMTQSPSSLSASLVDRVTITCRASQTISSYLNWYQQKPGKAPKLLIYGASILQSGVPSRFSGSGSGTDFTLTISSLQPEDHAVYFCQQSYSSPTFGGGTKVEIK
REGN560.L15_ab_raw, counts: 5520
//
BINDER: Table 1 Line # 6 antibody (BM_Plasma_cell) (antibody, human IgG4, V domains shown, Cloned with human IgG4/human Igk constants for Kd; barcode counts are of the source cell's own IgG) VH: EVQLVESGGDLVQPGRSLRLSCAASGFTFDDYAMHWVRQAPGKGLEWVSGISWNGNSLGYVDSVKGRFTVSRDNAKNSLYLQMNSLRAEDTALYYCTKDTGSYHSYYGLDVWGQGTTVTVSS VL: DIQMTQSPSSLSASVGDRVTITCRASQGIRNDLGWYQQKPGKAPKRLIYAASSLPSGVPSRFSGSGSGTEFTLTISSLQPEDFATYYCLQLNTYPLTFGGGTKVEIK
REGN560.L15_ab_raw, counts: 4140
//
BINDER: Table 1 Line # 25 antibody (SP_B_cell) (antibody, human IgG4, V domains shown, Cloned with human IgG4/human Igk constants for Kd; barcode counts are of the source cell's own IgG) VH: EVQLVESGGTVERPGGSLRLSCAASGFTFDDYGMSWVRQAPGKGLEWVSGTSWNGGHIGYADSVKGRFIISRDNAKNSLYLQINSLRVEDTALYYCTRDSTSSWYGVFDFWGQGTLVTVSS VL: DIQMTQSPSSLSASVGDRVTITCRASQDISINLAWYQQKPGKTPKLLIYAAASTLQSGVPSRFSGSGSGTDFTLTISSLQPEDVATYYCQNYNSAPRTFGQGTKVEIK
REGN560.L15_ab_raw, counts: 10600

Quick check: REGN560.L15_ab_raw of Table 1 Line # 3 antibody (BM_Plasma_cell) (antibody, human IgG4, V domains shown, Cloned with human IgG4/human Igk constants for Kd; barcode counts are of the source cell's own IgG) VH: EVQLVESGGGLVQPGRSLRLSCAASGFTFDDYAMHWVRQVTGKGLEWVSGINWNSGNIGYADSVRGRFTISRDNAKNSLYLQMNSLRAEDTALYYCAKDSGSSWYGYFDLWGRGTLVTVSS VL: DIQMTQSPSTLSASVGDRVTITCRASQSISRWLAWYQQKPGKAPKFLIYKASSLESGVPSRFSGSGSGTEFTLTISSLQPDDFATYYCQQYNSDSRTFGQGTKVEIK ?
6320

Origin of the recorded values: patent US20230349919A1
